Origin of measurements: patent US20240174622A1

- System: LNCaP tumor-transplanted mouse
- test_summary: Internal radioactivity distribution using LNCaP tumor-transplanted mouse
- Assay type: in vivo
- setup_conditions: 24 h after administration
quantity_kind: Brain (% ID/g)
Number only, in % ID/g; omit the unit.

IN: Using the record for O=C([O-])CN1CCN(C(CCC(=O)NCCC(=O)N2Cc3ccccc3-c3c(nnn3CCOCCOCCOCCOCCC(=O)NCCCC[C@H](NC(=O)N[C@@H](CCC(=O)O)C(=O)O)C(=O)O)-c3ccccc32)C(=O)[O-])CCN(CC(=O)[O-])CCN(C(CCC(=O)N[C@@H](CCCCNC(=O)CCCc2ccc(I)cc2)C(=O)O)C(=O)[O-])CC1.[111In+3] (stereo partly shown) [[^111In]In-PtDA] , report its Brain.
OUT: 0.30

---

- System: LNCaP tumor-transplanted mouse
- test_summary: Internal radioactivity distribution using LNCaP tumor-transplanted mouse
- Format: in vivo
- setup_conditions: 48 h after administration
quantity_kind: Intestine (% ID/g)
Number only, in % ID/g; omit the unit.

{"compound": "O=C([O-])CN(Cc1cccc(C(=O)[O-])n1)C[C@H](Cc1ccc(NC(=O)[C@H](CCCCNC(=O)CCC(=O)NCCCC[C@H](NC(=O)N[C@@H](CCC(=O)O)C(=O)O)C(=O)O)NC(=O)COCCOCCOCC(=O)N[C@@H](CCCCNC(=O)CCCc2ccc(I)cc2)C(=O)O)cc1)N(CC(=O)[O-])Cc1cccc(C(=O)[O-])n1.[111In+3] [[^111In]In-Octapa-3]", "display_unit": "% ID/g", "reported": 0.62}

Here is the next item to consider.
IN: Using the record for O=C([O-])CN(Cc1cccc(C(=O)[O-])n1)C[C@H](Cc1ccc(NC(=O)[C@H](CCCCNC(=O)CCC(=O)NCCCC[C@H](NC(=O)N[C@@H](CCC(=O)O)C(=O)O)C(=O)O)NC(=O)CCCc2ccc(I)cc2)cc1)N(CC(=O)[O-])Cc1cccc(C(=O)[O-])n1.[111In+3] [[^111In]In-Octapa-2] , report its Intestine.
OUT: 0.68

---

- Tested on: LNCaP tumor-transplanted mouse
- test_summary: Internal radioactivity distribution using LNCaP tumor-transplanted mouse
- Format: in vivo
- setup_conditions: 192 h after administration
quantity_kind: Stomach (% ID)
Report the figure along with its unit, number first.

Use the examples below as a reference point.
{"compound": "O=C(O)CC[C@H](NC(=O)N[C@@H](CCCCNC(=O)[C@H](Cc1ccc2ccccc2c1)NC(=O)[C@H]1CC[C@H](CNC(=O)CCC(C(=O)O)N2CCN(CC(=O)O)CCN(C(CCC(=O)N[C@@H](CCCCNC(=O)CCCc3ccc(I)cc3)C(=O)O)C(=O)O)CCN(CC(=O)O)CC2)CC1)C(=O)O)C(=O)O (stereo partly drawn) [[^111In]In-PSMA-NAT-DA1, metal not drawn]", "system_under_test": "LNCaP tumor-transplanted mouse", "reported": "0.12 ± 0.01 % ID"}
{"compound": "O=C([O-])CN(Cc1cccc(C(=O)[O-])n1)C[C@H](Cc1ccc(NC(=O)CCCCCNC(=O)CCC(=O)NCCCC[C@H](NC(=O)N[C@@H](CCC(=O)O)C(=O)O)C(=O)O)cc1)N(CC(=O)[O-])Cc1cccc(C(=O)[O-])n1.[111In+3] [[^111In]In-Octapa-1, reference compound]", "system_under_test": "LNCaP tumor-transplanted mouse", "reported": "0.01 % ID"}

Here is the next item to consider.
IN: Identify the measured Stomach (% ID) of O=C([O-])CN(CCN(CCc1ccc(NC(=O)CCCCCNC(=O)CCC(=O)NCCCC[C@H](NC(=O)N[C@@H](CCC(=O)O)C(=O)O)C(=O)O)cc1)CCN(CC(=O)[O-])Cc1cccc(C(=O)[O-])n1)Cc1cccc(C(=O)[O-])n1.[111In+3] [[^111In]In-Neunpa-1, reference compound] for LNCaP tumor-transplanted mouse.
OUT: 0.02 % ID

---

- Tested on: LNCaP tumor-transplanted mouse
- test_summary: Internal radioactivity distribution using LNCaP tumor-transplanted mouse
- Format: in vivo
- setup_conditions: 192 h after administration
Known Muscle of a selection of molecules
Number only, in % ID/g; omit the unit.

Use the examples below as a reference point.
{"molecule": "O=C([O-])CN(Cc1cccc(C(=O)[O-])n1)C[C@H](Cc1ccc(NC(=O)CCCCCNC(=O)CCC(=O)NCCCC[C@H](NC(=O)N[C@@H](CCC(=O)O)C(=O)O)C(=O)O)cc1)N(CC(=O)[O-])Cc1cccc(C(=O)[O-])n1.[111In+3] [[^111In]In-Octapa-1, reference compound]", "quantity_kind": "Muscle", "display_unit": "% ID/g", "reported": 0.02}
{"molecule": "O=C(O)CC[C@H](NC(=O)N[C@@H](CCCCNC(=O)[C@H](Cc1ccc2ccccc2c1)NC(=O)[C@H]1CC[C@H](CNC(=O)CCC(C(=O)O)N2CCN(CC(=O)O)CCN(C(CCC(=O)N[C@@H](CCCCNC(=O)CCCc3ccc(I)cc3)C(=O)O)C(=O)O)CCN(CC(=O)O)CC2)CC1)C(=O)O)C(=O)O (stereo partly shown) [[^111In]In-PSMA-NAT-DA1, metal not drawn]", "quantity_kind": "Muscle", "display_unit": "% ID/g", "reported": 0.33}
{"molecule": "O=C([O-])CN(Cc1cccc(C(=O)[O-])n1)C[C@H](Cc1ccc(NC(=O)[C@H](CCCCNC(=O)CCC(=O)NCCCC[C@H](NC(=O)N[C@@H](CCC(=O)O)C(=O)O)C(=O)O)NC(=O)CCCc2ccc(I)cc2)cc1)N(CC(=O)[O-])Cc1cccc(C(=O)[O-])n1.[111In+3] [[^111In]In-Octapa-2]", "quantity_kind": "Muscle", "display_unit": "% ID/g", "reported": 0.01}

Here is the next item to consider.
IN: Using the record for O=C([O-])CN(CCN(CCc1ccc(NC(=O)[C@H](CCCCNC(=O)CCC(=O)NCCCC[C@H](NC(=O)N[C@@H](CCC(=O)O)C(=O)O)C(=O)O)NC(=O)CCCc2ccc(I)cc2)cc1)CCN(CC(=O)[O-])Cc1cccc(C(=O)[O-])n1)Cc1cccc(C(=O)[O-])n1.[111In+3] [[^111In]In-Neunpa-2] , report its Muscle.
OUT: 0.08

---

- System: LNCaP tumor-transplanted mouse
- test_summary: Internal radioactivity distribution using LNCaP tumor-transplanted mouse
- Format: in vivo
- setup_conditions: 24 h after administration
# if measured Kidney < 40 % ID/g: MET  # else: NOT MET

See these solved cases before continuing.
{"compound": "O=C([O-])CN1CCN(C(CCC(=O)NCCC(=O)N2Cc3ccccc3-c3c(nnn3CCOCCOCCOCCOCCC(=O)NCCCC[C@H](NC(=O)N[C@@H](CCC(=O)O)C(=O)O)C(=O)O)-c3ccccc32)C(=O)[O-])CCN(CC(=O)[O-])CCN(C(CCC(=O)N[C@@H](CCCCNC(=O)CCCc2ccc(I)cc2)C(=O)O)C(=O)[O-])CC1.[111In+3] (stereo partly drawn) [[^111In]In-PtDA]", "group": "NOT MET"}
{"compound": "O=C([O-])CN(CCN(CCc1ccc(NC(=O)CCCCCNC(=O)CCC(=O)NCCCC[C@H](NC(=O)N[C@@H](CCC(=O)O)C(=O)O)C(=O)O)cc1)CCN(CC(=O)[O-])Cc1cccc(C(=O)[O-])n1)Cc1cccc(C(=O)[O-])n1.[111In+3] [[^111In]In-Neunpa-1, reference compound]", "group": "MET"}
{"compound": "O=C(O)CC[C@H](NC(=O)N[C@@H](CCCCNC(=O)[C@H](Cc1ccc2ccccc2c1)NC(=O)[C@H]1CC[C@H](CNC(=O)CCC(C(=O)O)N2CCN(CC(=O)O)CCN(C(CCC(=O)N[C@@H](CCCCNC(=O)CCCc3ccc(I)cc3)C(=O)O)C(=O)O)CCN(CC(=O)O)CC2)CC1)C(=O)O)C(=O)O (stereo partly drawn) [[^111In]In-PSMA-NAT-DA1, metal not drawn]", "group": "MET"}
{"compound": "O=C([O-])CN(Cc1cccc(C(=O)[O-])n1)C[C@H](Cc1ccc(NC(=O)[C@H](CCCCNC(=O)CCC(=O)NCCCC[C@H](NC(=O)N[C@@H](CCC(=O)O)C(=O)O)C(=O)O)NC(=O)COCCOCCOCC(=O)N[C@@H](CCCCNC(=O)CCCc2ccc(I)cc2)C(=O)O)cc1)N(CC(=O)[O-])Cc1cccc(C(=O)[O-])n1.[111In+3] [[^111In]In-Octapa-3]", "group": "MET"}
{"compound": "O=C([O-])CN(CCN(CCc1ccc(NC(=O)[C@H](CCCCNC(=O)CCC(=O)NCCCC[C@H](NC(=O)N[C@@H](CCC(=O)O)C(=O)O)C(=O)O)NC(=O)CCCc2ccc(I)cc2)cc1)CCN(CC(=O)[O-])Cc1cccc(C(=O)[O-])n1)Cc1cccc(C(=O)[O-])n1.[111In+3] [[^111In]In-Neunpa-2]", "group": "NOT MET"}

IN: Is the reported Kidney for O=C([O-])CN(Cc1cccc(C(=O)[O-])n1)C[C@H](Cc1ccc(NC(=O)CCCCCNC(=O)CCC(=O)NCCCC[C@H](NC(=O)N[C@@H](CCC(=O)O)C(=O)O)C(=O)O)cc1)N(CC(=O)[O-])Cc1cccc(C(=O)[O-])n1.[111In+3] [[^111In]In-Octapa-1, reference compound] strictly below 40 % ID/g?
OUT: MET
